biological target: IL17-RE-IL-17C (Homo sapiens, UniProt Q8NFR9+Q9P0M4); experiment: Inhibition of IL-17C/IL-17RE interaction (unknown origin) incubated for 1.5 hrs by ELISA method
Sequence (Q9P0M4 whole entry): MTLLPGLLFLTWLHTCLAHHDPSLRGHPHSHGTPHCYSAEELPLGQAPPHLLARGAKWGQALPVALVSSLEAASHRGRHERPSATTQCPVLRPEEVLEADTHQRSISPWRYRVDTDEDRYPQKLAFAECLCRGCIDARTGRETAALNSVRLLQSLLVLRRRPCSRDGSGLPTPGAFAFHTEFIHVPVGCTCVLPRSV
Sequence (Q8NFR9 whole entry): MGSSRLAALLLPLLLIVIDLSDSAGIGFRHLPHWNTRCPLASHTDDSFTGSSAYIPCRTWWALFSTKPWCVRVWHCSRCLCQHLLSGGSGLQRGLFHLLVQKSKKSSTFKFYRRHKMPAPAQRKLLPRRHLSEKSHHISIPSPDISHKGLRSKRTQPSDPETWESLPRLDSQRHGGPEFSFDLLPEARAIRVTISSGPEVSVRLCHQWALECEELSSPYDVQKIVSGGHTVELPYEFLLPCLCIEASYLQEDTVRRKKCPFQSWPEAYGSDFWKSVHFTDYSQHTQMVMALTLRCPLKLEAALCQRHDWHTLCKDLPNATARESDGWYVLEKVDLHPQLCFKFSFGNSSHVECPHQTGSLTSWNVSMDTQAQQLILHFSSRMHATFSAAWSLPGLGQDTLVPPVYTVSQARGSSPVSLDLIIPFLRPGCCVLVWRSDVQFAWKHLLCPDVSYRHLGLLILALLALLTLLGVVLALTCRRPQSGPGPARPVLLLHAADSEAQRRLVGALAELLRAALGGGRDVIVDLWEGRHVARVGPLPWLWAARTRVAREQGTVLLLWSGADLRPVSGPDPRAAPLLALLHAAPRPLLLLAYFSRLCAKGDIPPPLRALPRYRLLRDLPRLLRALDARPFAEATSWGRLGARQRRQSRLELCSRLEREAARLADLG
Positions of bridges follow the written chain, without caps; N, C: chain ends. Residues, ends and D or L forms follow the SMILES beside them.
property: pIC50
Please note pIC50 is a logarithmic value: minus log10 of concentration in mol/L. Answer with that number alone.

See these solved cases before continuing.
Given the entry CC[C@H](C)[C@@H]1NC(=O)[C@H](Cc2c[nH]cn2)NC(=O)[C@H](Cc2ccc(O)cc2)NC(=O)CSC[C@@H](C(=O)NCC(N)=O)NC(=O)CNC(=O)[C@H](CC(C)C)NC(=O)[C@H](CCCNC(=N)N)NC(=O)CNC(=O)[C@H](Cc2ccc(O)cc2)NC(=O)[C@H](CC(C)C)NC(=O)[C@H](CO)NC(=O)[C@H](Cc2ccccc2)NC(=O)[C@H](Cc2ccc(O)cc2)NC(=O)[C@H](Cc2ccc(O)cc2)NC1=O ({CH2CO}-YHIYYFSLYGRLGCG-NH2; thioether N-14) , what pIC50 was observed with IL17-RE-IL-17C (Homo sapiens, UniProt Q8NFR9+Q9P0M4)?
8.52

Now the same for CC(C)C[C@@H]1NC(=O)[C@H](CC(N)=O)NC(=O)CNC(=O)[C@H](Cc2ccc(O)cc2)NC(=O)[C@H](CC(C)C)NC(=O)[C@H](CC(C)C)NC(=O)[C@H](CCCNC(=N)N)NC(=O)[C@H](Cc2ccc(O)cc2)NC(=O)[C@H](Cc2ccc(O)cc2)NC(=O)[C@H](CCC(N)=O)NC(=O)[C@H](Cc2c[nH]cn2)NC(=O)[C@H](Cc2ccc(O)cc2)NC(=O)CSC[C@@H](C(=O)NCC(N)=O)NC(=O)CNC1=O ({CH2CO}-YHQYYRLLYGNLGCG-NH2; thioether N-14)
7.58

Please give the result for CC[C@H](C)[C@@H]1NC(=O)[C@H](CCCNC(=N)N)NC(=O)[C@H](Cc2ccc(O)cc2)NC(=O)[C@H](Cc2ccccc2)NC(=O)[C@H](Cc2c[nH]cn2)NC(=O)[C@H](Cc2c[nH]cn2)NC(=O)[C@H](Cc2ccc(O)cc2)NC(=O)CSC[C@@H](C(=O)NCC(N)=O)NC(=O)CNC(=O)[C@H](CC(C)C)NC(=O)[C@H](CCC(=O)O)NC(=O)CNC(=O)[C@H](Cc2ccc(O)cc2)NC(=O)[C@H](CC(C)C)NC1=O ({CH2CO}-YHHFYRILYGELGCG-NH2; thioether N-14) too.
6.77

How about this molecule: CC(C)C[C@@H]1NC(=O)[C@H](CC(N)=O)NC(=O)CNC(=O)[C@H](Cc2ccc(O)cc2)NC(=O)[C@H](CC(C)C)NC(=O)[C@H](CC(C)C)NC(=O)[C@H](CCCNC(=N)N)NC(=O)[C@H](Cc2ccc(O)cc2)NC(=O)[C@H](Cc2ccc(O)cc2)NC(=O)[C@H](CC(C)C)NC(=O)[C@H](Cc2c[nH]cn2)NC(=O)[C@H](Cc2ccc(O)cc2)NC(=O)CSC[C@@H](C(=O)NCC(N)=O)NC(=O)CNC1=O ({CH2CO}-YHLYYRLLYGNLGCG-NH2; thioether N-14)
7.31

Next molecule, please.
Short answer please: pIC50, IL17-RE-IL-17C (Homo sapiens, UniProt Q8NFR9+Q9P0M4), entry CC(C)C[C@@H]1NC(=O)[C@H](CO)NC(=O)CNC(=O)[C@H](Cc2ccc(O)cc2)NC(=O)[C@H](CC(C)C)NC(=O)[C@H](CO)NC(=O)[C@H](C(C)C)NC(=O)[C@H](Cc2ccc(O)cc2)NC(=O)[C@H](Cc2ccc(O)cc2)NC(=O)[C@H](CC(C)C)NC(=O)[C@H](Cc2c[nH]cn2)NC(=O)[C@H](Cc2ccc(O)cc2)NC(=O)CSC[C@@H](C(=O)NCC(N)=O)NC(=O)CNC1=O ({CH2CO}-YHLYYVSLYGSLGCG-NH2; thioether N-14)
7.92
